TESTED_ON: human Claudin18.2 (human)
METHOD_SUMMARY: cell-based or functional assay
Here the recorded CDC EC50 is given for each entry.

BINDER	CDC EC50 / µg/mL
420H7E6 (antibody, V domains shown) VH: DVQLVESGGGLVQPGGSRKLSCVTSGFTFSSFGMHWIRQAPEKGLEWVAFISGGGSPIFYADSVKGRFTVSRDNPKNTLFLQMTGLRSEDTAMYFCARFYFGNSFAYWGQGTLVTVSA VL: DIVMAQSPSSLTVTAGEKVTMNCRSSQSLFNSGNQKNYLTWYQQKPGQPPKLLIYWASTRESGVPVRFTGSGSGTDFTLTISSVQAEDLAVYYCQTGFSYPLTFGPGTKLELK	3.9
234C9G5 (antibody, V domains shown) VH: QAYLQQSGAELVRSGASVKMSCKASGYAFTSHNMHWVKQTPGQGLEWIGYISPGNGYTNYNQKFRGKATLTADTSSSTAYMQIGSLTSEDSAVYFCTRDYYGNSFAYWGQGTLVTVSA VL: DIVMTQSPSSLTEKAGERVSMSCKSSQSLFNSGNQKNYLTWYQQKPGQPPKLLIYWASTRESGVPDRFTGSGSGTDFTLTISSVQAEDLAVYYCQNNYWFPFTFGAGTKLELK	0.794
